Test: Cell viability by trypan blue dye in BRET assay media
Assay type: cell-based
Details: hamster, cho cells; DTT 50 and 100mM, over a period of 2 hours; read-out: viability decrease
assay readout: cytotoxicity at 2 h

Given the entry OC(CS)C(O)CS (stereo not shown) , report its measured cytotoxicity at 2 h. > 20%

---

Target: Rluc (Renilla reniformis, UniProt P27652)
Sequence (P27652 whole entry): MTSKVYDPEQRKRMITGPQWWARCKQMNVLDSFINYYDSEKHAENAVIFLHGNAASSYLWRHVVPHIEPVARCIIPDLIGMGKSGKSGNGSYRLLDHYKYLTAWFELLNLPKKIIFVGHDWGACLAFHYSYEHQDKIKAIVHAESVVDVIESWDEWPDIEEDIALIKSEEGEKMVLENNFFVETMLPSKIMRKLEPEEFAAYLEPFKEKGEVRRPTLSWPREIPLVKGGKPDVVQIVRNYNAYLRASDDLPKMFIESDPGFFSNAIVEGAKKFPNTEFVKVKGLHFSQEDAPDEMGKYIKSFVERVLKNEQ
Assay: Rluc luminescence with coelenterazine derivatives in cells transfected with pRluc-CMV (LumiCount)
Set-up: dose or concentration left out as unconfirmed
Details: HeLa cells, derivatives, 4 minutes after addition
assay readout: Normalized RLU (RLU)
Numbers only, in RLU.

Sample answers from the record:
molecule	assay readout	test result
Oc1ccc(-c2cn3c(O)c(Cc4ccccc4)nc3c(Cc3ccccc3)n2)cc1 [h, coelenterazine h]	Normalized RLU	173547
Oc1ccc(-c2cn3c(O)c(Cc4ccc(F)cc4)nc3c(Cc3ccccc3)n2)cc1 [f, coelenterazine f]	Normalized RLU	180126
Oc1ccc(Cc2nc3c(Cc4ccccc4)nc(-c4ccc(O)cc4)cn3c2O)cc1 [native, coelenterazine]	Normalized RLU	2030

Given the entry Oc1ccc(-c2cn3c(O)c(Cc4ccccc4)nc3c(CC3CCCC3)n2)cc1 [hcp] , report its measured Normalized RLU. 48144
